All values here come from PubChem BioAssay (NCI).

# Tested on: CAKI-1 renal
# Measurement description: NCI-60 one-dose screen, 48 h
# Condition set: 10 µM unless noted
Compounds without any hit were thinned out: in the full panel of roughly 83,000, 20% have a hit. The source made the active and inactive calls. The calls were made as follows: active = growth percent below 10; inactive = the rest.
Parameter call: string, one of YES (active), NO (inactive)

Q. What did the test return for "NC(=O)c1ccc(-c2ccc3ncnc(N4CCc5cc(F)c(Cl)cc54)c3c2)cn1" ?
A. NO

Q. Same question, "Nc1ccc(-c2ccc3ncnc(N4CCc5cc(F)c(Cl)cc54)c3c2)cn1" this time
A. YES

Q. Please do the same for O=C(c1ccc(O)cc1)C1[C@H](c2ccc(Cl)cc2)[C@@H](c2ccccc2)NC12C(=O)Nc1ccccc12 (some centres undefined) as well.
A. YES

Q. Ok, now "Cn1cc(-c2cc3nc(-c4cn(C)c5ncccc45)cc(N)n3n2)c2cc(F)ccc21"
A. NO

Q. Same again, this time with "CN1CCN(C(=O)Oc2cc3c(c4ccccc24)[C@H](CCl)CN3C(=O)c2cc3cc(OCCCN4CCC4)ccc3[nH]2)[C@H]2CSSC[C@H]21"
A. YES
